# ASSAYED SYSTEM: Histone deacetylase 1 (Homo sapiens)
# Sequence (Q13547 whole entry, the tested form may be a part): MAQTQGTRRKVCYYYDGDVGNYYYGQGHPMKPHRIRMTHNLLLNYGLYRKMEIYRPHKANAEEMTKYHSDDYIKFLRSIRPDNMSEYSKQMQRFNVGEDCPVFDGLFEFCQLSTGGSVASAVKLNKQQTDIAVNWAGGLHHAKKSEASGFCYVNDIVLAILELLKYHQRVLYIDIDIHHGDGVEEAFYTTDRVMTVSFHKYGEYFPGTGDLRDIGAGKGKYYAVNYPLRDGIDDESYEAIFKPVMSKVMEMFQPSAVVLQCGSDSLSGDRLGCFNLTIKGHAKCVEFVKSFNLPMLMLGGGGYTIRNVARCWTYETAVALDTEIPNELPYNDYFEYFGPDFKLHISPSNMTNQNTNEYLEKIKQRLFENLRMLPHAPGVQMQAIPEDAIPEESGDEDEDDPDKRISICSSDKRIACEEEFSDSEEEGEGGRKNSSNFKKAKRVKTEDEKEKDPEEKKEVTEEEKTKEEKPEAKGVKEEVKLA
# EXPERIMENT: Inhibition of full-length recombinant human HDAC1 (1 to 482 residues) expressed in baculovirus infected insect cells using […] as substrate incubated for 30 mins by fluorescence based analysis
MEASUREMENT TYPE: IC50 (nM)
Expressed in nM, but write only the number.

Lookup: Return reported IC50; argument: "Cc1nnc2n1-c1ccccc1C(c1ccccc1)=N[C@H]2CC(=O)Nc1ccc(CC(=O)NO)cc1"
Found: 730

Lookup: Cool, now "Cc1nnc2n1-c1ccccc1C(c1ccc(Cl)cc1)=N[C@H]2CC(=O)Nc1ccc(C(=O)NO)cc1"
Found: 110

Lookup: Cool, now "Cc1nnc2n1-c1ccccc1C(c1ccccc1)=N[C@H]2CC(=O)Nc1ccc(/C=C/C(=O)NO)cc1"
Found: 100

----------
Give IC50 for every item shown.
# ASSAYED SYSTEM: Histone deacetylase 1 (Homo sapiens)
# EXPERIMENT: Inhibition of full-length recombinant human HDAC1 (1 to 482 residues) expressed in baculovirus infected insect cells using […] as substrate incubated for 30 mins by fluorescence based analysis
Expressed in nM, but write only the number.

Lookup: Return reported IC50; argument: "Cc1nnc2n1-c1ccc(Cl)cc1C(c1ccccc1Cl)=N[C@H]2CC(=O)Nc1ccc(/C=C/C(=O)NO)cc1"
Found: 1300

Lookup: Cool, now "Cc1nnc2n1-c1ccccc1C(c1ccc(Cl)cc1)=N[C@H]2CC(=O)Nc1ccc(CC(=O)NO)cc1"
Found: 2400

Lookup: Cool, now "Cc1ccc(C2=N[C@@H](CC(=O)NCc3ccc(C(=O)NO)cc3)c3nnc(C)n3-c3ccccc32)cc1"
Found: 890

Lookup: Cool, now "Cc1nnc2n1-c1ccccc1C(c1ccccc1)=N[C@H]2CC(=O)NCc1ccc(C(=O)NO)cc1"
Found: 250

Lookup: Cool, now "Cc1nnc2n1-c1sc3c(c1C(c1ccc(Cl)cc1)=N[C@H]2CC(=O)NCc1ccc(C(=O)NO)cc1)CCCC3"
Found: 2400

Lookup: Cool, now "Cc1nnc2n1-c1ccc(Cl)cc1C(c1ccccc1Cl)=N[C@H]2CC(=O)Nc1ccc(CC(=O)NO)cc1"
Found: 1100

Lookup: Cool, now "Cc1nnc2n1-c1ccc(Cl)cc1C(c1ccccc1Cl)=N[C@H]2CC(=O)NCc1ccc(C(=O)NO)cc1"
Found: 1900

Lookup: Cool, now "Cc1nnc2n1-c1ccccc1C(c1ccc(Cl)cc1)=N[C@H]2CC(=O)NCc1ccc(C(=O)NO)cc1"
Found: 560

Lookup: Cool, now "Cc1nnc2n1-c1ccccc1C(c1ccc(Cl)cc1)=N[C@H]2CC(=O)Nc1ccc(/C=C/C(=O)NO)cc1"
Found: 630

Lookup: Cool, now "Cc1ccc(C2=N[C@@H](CC(=O)Nc3ccc(C(=O)NO)cc3)c3nnc(C)n3-c3ccccc32)cc1"
Found: 51000

Lookup: Cool, now "Cc1nnc2n1-c1ccccc1C(c1ccccc1)=N[C@H]2CC(=O)Nc1ccc(C(=O)NO)cc1"
Found: 62

Lookup: Cool, now "Cc1ccc(C2=N[C@@H](CC(=O)Nc3ccc(/C=C/C(=O)NO)cc3)c3nnc(C)n3-c3ccccc32)cc1"
Found: 180
